# testedSystem: Sphingosine 1-phosphate receptor 1 (Homo sapiens)
# Sequence (P21453 whole entry): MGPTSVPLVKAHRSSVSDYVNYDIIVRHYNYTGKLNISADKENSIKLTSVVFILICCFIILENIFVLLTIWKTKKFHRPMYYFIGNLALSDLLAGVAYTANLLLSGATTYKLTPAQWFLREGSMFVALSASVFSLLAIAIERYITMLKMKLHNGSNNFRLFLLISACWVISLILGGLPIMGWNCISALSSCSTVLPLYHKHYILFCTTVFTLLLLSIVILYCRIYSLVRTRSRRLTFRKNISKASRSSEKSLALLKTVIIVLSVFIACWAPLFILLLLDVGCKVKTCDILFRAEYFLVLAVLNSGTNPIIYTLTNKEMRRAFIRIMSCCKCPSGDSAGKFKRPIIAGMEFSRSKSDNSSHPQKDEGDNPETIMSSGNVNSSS
# methodSummary: Agonist activity at S1P1R (unknown origin) assessed as [33P] binding activity
Mark satisfied for Activity under 1 nM, not satisfied if at or over.

// known answers, use as guide
C[C@](N)(COP(=O)(O)O)c1nc(-c2ccc(OCc3ccc(-c4ccccc4)cc3)c(C(F)(F)F)c2)c[nH]1	satisfied
CCCCCCCCOc1ccc(-c2noc([C@@](C)(N)COP(=O)(O)O)n2)cc1C(F)(F)F	not satisfied
C[C@](N)(COP(=O)(O)O)c1nnc(-c2ccc(OCc3ccc(-c4ccccc4)cc3)c(C(F)(F)F)c2)s1	not satisfied
C[C@](N)(COP(=O)(O)O)c1nc(-c2ccc(OCc3ccc(-c4ccccc4)cc3)c(C(F)(F)F)c2)cs1	not satisfied
CCCCCCCCOc1ccc(-c2cc([C@@](C)(N)COP(=O)(O)O)[nH]n2)cc1C(F)(F)F	satisfied
Cc1nc([C@@](C)(N)COP(=O)(O)O)[nH]c1-c1ccc(OCc2ccc(-c3ccccc3)cc2)c(C(F)(F)F)c1	satisfied

Task: Confirm or reject: Activity of CCCCCCCCOc1ccc(-c2cnc([C@@](C)(N)COP(=O)(O)O)[nH]2)cc1C(F)(F)F lies strictly below 1 nM
Output: not satisfied

Task: Same again, this time with NC(CO)(COP(=O)(O)O)c1nc(-c2ccc(OCc3ccc(-c4ccccc4)cc3)c(C(F)(F)F)c2)c[nH]1 (stereo unspecified)
Output: not satisfied

Task: Next record, please: CCCCCCCCOc1ccc(-c2cc([C@@](C)(N)COP(=O)(O)O)on2)cc1C(F)(F)F
Output: satisfied

Task: Follow-up entry: CCCCCCCCOc1ccc(-c2nnc([C@@](C)(N)COP(=O)(O)O)o2)cc1C(F)(F)F
Output: not satisfied

Task: Lookup CCCCCCCCOc1ccc(-c2cnc([C@@](C)(N)COP(=O)(O)O)s2)cc1C(F)(F)F
Output: satisfied

Task: // next record CCCCCCCCOc1ccc(-c2nnc([C@@](C)(N)COP(=O)(O)O)s2)cc1C(F)(F)F
Output: satisfied

Task: Ok, now N[C@@H](COP(=O)(O)O)c1nc(-c2ccc(OCc3ccc(-c4ccccc4)cc3)c(C(F)(F)F)c2)c[nH]1
Output: satisfied

====

# Organism: Homo sapiens
# methodSummary: Selectivity ratio for S1P3R (unknown origin) to S1P1R (unknown origin)
Listing: Selectivity ratio of selected molecules

These solved cases illustrate the format of a correct answer.
C[C@](N)(COP(=O)(O)O)c1nnc(-c2ccc(OCc3ccc(-c4ccccc4)cc3)c(C(F)(F)F)c2)s1	2540
NC(CO)(COP(=O)(O)O)c1nc(-c2ccc(OCc3ccc(-c4ccccc4)cc3)c(C(F)(F)F)c2)c[nH]1 (stereo unspecified)	> 4350
C[C@](N)(COP(=O)(O)O)c1nc(-c2ccc(OCc3ccc(-c4ccccc4)cc3)c(C(F)(F)F)c2)cs1	> 6250
CCCCCCCCOc1ccc(-c2nnc([C@@](C)(N)COP(=O)(O)O)o2)cc1C(F)(F)F	> 359
C[C@](N)(COP(=O)(O)O)c1ncc(-c2ccc(OCc3ccc(-c4ccccc4)cc3)c(C(F)(F)F)c2)s1	1190
Cc1nc([C@@](C)(N)COP(=O)(O)O)[nH]c1-c1ccc(OCc2ccc(-c3ccccc3)cc2)c(C(F)(F)F)c1	11900

Task: Name the recorded Selectivity ratio for N[C@@H](COP(=O)(O)O)c1nc(-c2ccc(OCc3ccc(-c4ccccc4)cc3)c(C(F)(F)F)c2)c[nH]1 .
Output: 2170
